Measured pKi values are reported for all entries that follow.
Molecular target: human synovial collagenase (Homo sapiens)
Construct: endogenous in cells
Sequence (P03956 100-469): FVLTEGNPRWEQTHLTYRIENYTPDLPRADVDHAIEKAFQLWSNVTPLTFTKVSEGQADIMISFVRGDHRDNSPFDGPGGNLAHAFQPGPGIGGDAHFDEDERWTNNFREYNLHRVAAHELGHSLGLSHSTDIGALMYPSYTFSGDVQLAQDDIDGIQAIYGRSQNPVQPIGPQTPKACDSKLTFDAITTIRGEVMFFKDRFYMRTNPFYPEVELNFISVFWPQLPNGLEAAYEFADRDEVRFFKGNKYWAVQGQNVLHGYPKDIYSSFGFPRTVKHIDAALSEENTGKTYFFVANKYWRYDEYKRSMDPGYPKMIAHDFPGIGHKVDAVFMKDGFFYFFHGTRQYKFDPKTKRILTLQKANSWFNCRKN
Assay: Collagenase inhibition test (14C-collagen assay), synovial collagenase
Conditions: 0.50 M NaCl, 0.01 M CaCl2, 0.05 M Tris, pH 7.5, 35° C.; Dixon plot, single substrate concentration 10 μM collagen
Where a SMILES comes first, the peptide text is derived from it. The star is where a group is joined. Cbz = O=C(OCc1ccccc1)*; NHOH = ON*
A value of pKi is the negative decimal logarithm of a concentration given in moles per litre.

INSERT INTO assay_data (compound, measurement) VALUES
  ('CC(C)C[C@H](NC(=O)OCc1ccccc1)C(=O)N[C@@H](CC(C)C)C(=O)NCC(=O)NO [Z--Leu--Leu--Gly--NHOH] (Cbz-Leu-Leu-Gly-{NHOH})', 3.48),
  ('O=C(CNC(=O)CNC(=O)OCc1ccccc1)NO [Z--Gly--Gly--NHOH] (Cbz-Gly-Gly-{NHOH})', 2.70),
  ('CC(NC(=O)OCc1ccccc1)C(=O)NCC(=O)NO (stereo not shown)', 2.59);

Moving on to the next compound.
// Input: O=C(CNC(=O)C(Cc1ccccc1)NC(=O)OCc1ccccc1)NO (stereo not shown) . Output its pKi only.
4.00

---

Molecular target: human collagenase isolated from skin fibroblasts and synovial cells (Homo sapiens, UniProt P03956)
Construct: endogenous in cells; enzyme purified from conditioned medium
Sequence (P03956 100-469): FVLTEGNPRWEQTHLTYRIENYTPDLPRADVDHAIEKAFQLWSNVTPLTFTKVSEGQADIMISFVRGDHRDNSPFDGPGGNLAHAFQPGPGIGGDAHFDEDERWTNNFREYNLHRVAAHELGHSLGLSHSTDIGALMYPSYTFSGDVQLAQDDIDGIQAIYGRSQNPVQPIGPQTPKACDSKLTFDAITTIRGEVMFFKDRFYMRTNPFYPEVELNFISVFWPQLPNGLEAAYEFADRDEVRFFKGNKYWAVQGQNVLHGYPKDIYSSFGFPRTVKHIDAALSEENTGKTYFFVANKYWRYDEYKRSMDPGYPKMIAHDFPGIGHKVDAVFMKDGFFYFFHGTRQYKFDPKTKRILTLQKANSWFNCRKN
Assay: Collagenase inhibition, (enzyme source not distinguished)
Details: human collagenase
readout label: pKi
Quick note: pKi means taking -log10 of the concentration in moles per liter.

Supply pKi value. Item: CC(C)CC(C(=O)NO)C(=O)N[C@@H](C)C(=O)NCC(N)=O (stereo partly shown)
2.70
